- assayed_target: 6xHis-hSUMO-3-eGFP

[
  {
    "protein": "Arabidopsis thalania ULP1c (AtULP1c) SUMO protease catalytic domain (protein) MVVEEACELPEGLPEDIYYPSSDQSDGRDLVQVSLKDLKCLSPGEYLTSPVINFYIRYVQHHVFSADKTAANCHFFNTFFYKKLTEAVSYKGNDRDAYFVKFRRWWKGFDLFCKSYIFIPIHEDLHWSLVIICIPDKEDESGLTIIHLDSLGLHPRNLIFNNVKRFLREEWNYLNQDAPLDLPISAKVWRDLPNMINEAEVQVPQQKNDFDCGLFLLFFIRRFIEEAPQRLTLQDLKMIHKKWFKPEEASALRIKIWNILVDLFRKGNQTDLEHHHHHH",
    "activity level (grade)": "-"
  },
  {
    "protein": "human SENP1 (hSENP1) SUMO protease catalytic domain (protein) MASFPEITEEMEKEIKNVFRNGNQDEVLSEAFRLTITRKDIQTLNHLNWLNDEIINFYMNMLMERSKEKGLPSVHAFNTFFFTKLKTAGYQAVKRWTKKVDVFSVDILLVPIHLGVHWCLAVVDFRKKNITYYDSMGGINNEACRILLQYLKQESIDKKRKEFDTNGWQLFSKKSQIPQQMNGSDCGMFACKYADCITKDRPINFTQQHMPYFRKRMVWEILHRKLLEHHHHHH",
    "activity level (grade)": "+"
  },
  {
    "protein": "human SENP2 (hSENP2) SUMO protease catalytic domain (protein) MASLLELTEDMEKEISNALGHGPQDEILSSAFKLRITRGDIQTLKNYHWLNDEVINFYMNLLVERNKKQGYPALHVFSTFFYPKLKSGGYQAVKRWTKGVNLFEQEIILVPIHRKVHWSLVVIDLRKKCLKYLDSMGQKGHRICEILLQYLQDESKTKRNSDLNLLEWTHHSMKPHEIPQQLNGSDCGMFTCKYADYISRDKPITFTQHQMPLFRKKMVWEILHQQLLAAALEHHHHHH",
    "activity level (grade)": "+++"
  },
  {
    "protein": "Saccharomyces cerevisiae Ulp1 SUMO protease catalytic domain (protein) MGLVPELNEKDDDQVQKALASRENTQLMNRDNIEITVRDFKTLAPRRWLNDTIIEFFMKYIEKSTPNTVAFNSFFYTNLSERGYQGVRRWMKRKKTQIDKLDKIFTPINLNQSHWALGIIDLKKKTIGYVDSLSNGPNAMSFAILTDLQKYVMEESKHTIGEDFDLIHLDCPQQPNGYDCGIYVCMNTLYGSADAPLDFDYKDAIRMRRFIAHLILTDALKLEHHHHHH",
    "activity level (grade)": "+"
  }
]
